System: E. coli 1346
Assay: Antibacterial activity of the products per se, serial dilution method in liquid medium (Test E)
Assay type: cell-based
Settings: Table 4; test E, product per se
Where a name gives a salt, the structure may show the parent alone.
TEST READOUT: MIC E. coli 1346 (E) (µg/mL)

> print(dat)
                                   molecule  censoring.qualifier  observed.result
1  Cc1nnc(SCC2=C(C(=O)O)N3C(=O)[C@H]4NC[C@@H](C2)[C@H]43)s1 [Example 63]                    =                8
2  CC(=O)N1C[C@H]2SC(CSc3ccncc3)=C(C(=O)O)N3C(=O)[C@@H]1[C@@H]23 [42(b), sodium salt]                    =              0.5
3  Cn1nnnc1SCC1=C(C(=O)O)N2C(=O)[C@H]3NC[C@@H](S1)[C@H]32 [Example 40(a)]                    =               16
4  O=C(NCC(F)(F)F)OCC1=C(C(=O)O)N2C(=O)[C@@H]3[C@H]2[C@H](C1)CN3C(=O)C(F)(F)F [92(b), sodium salt]                    =                4
5  Cc1nnc(SCC2=C(C(=O)O)N3C(=O)[C@@H]4[C@H]3[C@@H](CN4C(=O)CSc3nnnn3C)O2)s1 [Example 34]                    =                8
6  CC(=O)N1C[C@H]2OC(CSc3nnnn3CC(=O)NOC(c3ccccc3)(c3ccccc3)c3ccccc3)=C(C(=O)O)N3C(=O)[C@@H]1[C@@H]23 [32(h), sodium salt]                    >               32
7  CC(=O)NCC1=C(C(=O)O)N2C(=O)[C@H]3NC[C@@H](C1)[C@H]32 [Example 84]                    =                2

###

Tested on: E. coli 1346
Assay: Antibacterial activity of the products per se, serial dilution method in liquid medium (Test E)
Assay type: cell-based
Conditions: Table 4; test E, product per se
Where a name gives a salt, the structure may show the parent alone.
TEST READOUT: MIC E. coli 1346 (E) (µg/mL)

> print(dat)
                                    compound          test.readout  censoring.qualifier  observed.result
 1  NC(=O)CN1C[C@H]2CC(COC(N)=O)=C(C(=O)O)N3C(=O)[C@@H]1[C@@H]23 [59(d), sodium salt]  MIC E. coli 1346 (E)                    =                8
 2  CNC(=O)Cn1nnnc1SCC1=C(C(=O)O)N2C(=O)[C@H]3NC[C@@H](C1)[C@H]32  MIC E. coli 1346 (E)                    =                1
 3  CC(=O)N1C[C@H]2CC(CN=[N+]=[N-])=C(C(=O)O)N3C(=O)[C@@H]1[C@@H]23 [83(a), sodium salt]  MIC E. coli 1346 (E)                    =                2
 4  N[C@@H](C(=O)N1C[C@H]2CC(COC(=O)NCc3ccncc3)=C(C(=O)O)N3C(=O)[C@@H]1[C@@H]23)c1ccccc1 [100(d), hydrochloride]  MIC E. coli 1346 (E)                    =              0.5
 5  O=C(NCc1ccncc1)OCC1=C(C(=O)O)N2C(=O)[C@@H]3[C@H]2[C@H](C1)CN3C(=O)C(F)(F)F [100(b), sodium salt]  MIC E. coli 1346 (E)                    =                2
 6  Cc1nnc(SCC2=C(C(=O)O)N3C(=O)[C@@H]4[C@H]3[C@H](C2)CN4C(=O)Nc2ccc(O)cc2)s1 [Example 64, sodium salt]  MIC E. coli 1346 (E)                    >               32
 7  O=C(O)C1=C(CSc2ccncc2)C[C@@H]2CN(C(=O)NCc3ccc(O)cc3)[C@@H]3C(=O)N1[C@H]23 [18(i), sodium salt]  MIC E. coli 1346 (E)                    =               32
 8  CS(=O)(=O)NCC1=C(C(=O)O)N2C(=O)[C@H]3NC[C@@H](C1)[C@H]32  MIC E. coli 1346 (E)                    =               16
 9  O=C(O)C1=C(CSc2nc[nH]n2)C[C@@H]2CN[C@@H]3C(=O)N1[C@H]23  MIC E. coli 1346 (E)                    =                4
10  Cn1c(O)nnc1SCC1=C(C(=O)O)N2C(=O)[C@H]3NC[C@@H](S1)[C@H]32  MIC E. coli 1346 (E)                    =                8
11  NC(=O)CSC1=C(C(=O)O)N2C(=O)[C@@H]3[C@H]2[C@H](C1)CN3C(=O)C(F)(F)F [3(al), sodium salt]  MIC E. coli 1346 (E)                    =                8
12  CC(=O)N1C[C@H]2CC(Sc3nnc(N)s3)=C(C(=O)O)N3C(=O)[C@@H]1[C@@H]23 [3(ae), sodium salt]  MIC E. coli 1346 (E)                    =                4
13  NC(=O)CNC(=O)OCC1=C(C(=O)O)N2C(=O)[C@@H]3[C@H]2[C@H](C1)CN3C(=O)C(F)(F)F [96(b), sodium salt]  MIC E. coli 1346 (E)                    =                2
14  Cn1nnnc1CSCC1=C(C(=O)O)N2C(=O)[C@H]3NC[C@@H](S1)[C@H]32 [Example 43, sodium salt]  MIC E. coli 1346 (E)                    >               32

###

Test system: E. coli 1346
Test: Antibacterial activity of the products per se, serial dilution method in liquid medium (Test E)
Assay type: cell-based
Settings: Table 4; test E, product per se
Where a name gives a salt, the structure may show the parent alone.
TEST READOUT: MIC E. coli 1346 (E) (µg/mL)

> print(dat)
                                   compound  measured.target  censoring.qualifier  observed.result
1  O=C([O-])C1=C(CSc2cc[n+](Cc3ccccc3)cc2)C[C@@H]2CN(C(=O)C(F)(F)F)[C@@H]3C(=O)N1[C@H]23 [52(d)]     E. coli 1346                    =                2
2  O=C(Cn1nnnc1SCC1=C(C(=O)O)N2C(=O)[C@H]3NC[C@@H](C1)[C@H]32)NCCc1ccccc1 [Example 79]     E. coli 1346                    =                2
3  CC(=O)N1C[C@H]2SC(CSc3nnc(C)s3)=C(C(=O)O)N3C(=O)[C@@H]1[C@@H]23 [42(a), sodium salt]     E. coli 1346                    =                2
4  CC(=O)N1C[C@H]2CC(Sc3nnc(C)s3)=C(C(=O)O)N3C(=O)[C@@H]1[C@@H]23 [3(ac), sodium salt]     E. coli 1346                    =                8
5  CC(=O)N1C[C@H]2OC(CSc3ccncc3)=C(C(=O)O)N3C(=O)[C@@H]1[C@@H]23 [32(a), sodium salt]     E. coli 1346                    >               32
6  O=C(O)C1=C(CSc2ncccn2)C[C@@H]2CN[C@@H]3C(=O)N1[C@H]23 [Example 71]     E. coli 1346                    =                8
7  CC(=O)N1C[C@H]2CC(CSc3nnc(N)s3)=C(C(=O)O)N3C(=O)[C@@H]1[C@@H]23 [19(i), sodium salt]     E. coli 1346                    =              0.5

###

MIC E. coli 1346 (E) values by entry
Test system: E. coli 1346
Assay: Antibacterial activity of the products per se, serial dilution method in liquid medium (Test E)
Type: cell-based
Conditions: Table 4; test E, product per se
Structures can show the parent of a compound that is named as a salt.
TEST READOUT: MIC E. coli 1346 (E) (µg/mL)

> print(dat)
                                   compound  censoring.qualifier  observed.result
1  Nc1nnc(SCC2=C(C(=O)O)N3C(=O)[C@@H]4[C@H]3[C@H](C2)CN4C(=O)C(F)(F)F)s1 [19(h), sodium salt]                    =                2
2  CC(=O)N1C[C@H]2CC(COC(=O)NCc3ccc(O)cc3)=C(C(=O)O)N3C(=O)[C@@H]1[C@@H]23 [102(a), sodium salt]                    =              0.5
3  O=C([O-])C[n+]1ccc(SCC2=C(C(=O)O)N3C(=O)[C@H]4NC[C@@H](C2)[C@H]43)cc1                    =                4
4  CC(=O)OCC1=C(C(=O)O)N2C(=O)[C@@H]3[C@H]2[C@H](C1)CN3C(C)=O [25(c), sodium salt]                    =                4
5  O=C(O)C1=C(CSc2ccnc3c2CCC3)S[C@@H]2CN(C(=O)Nc3ccc(O)cc3)[C@@H]3C(=O)N1[C@@H]32 [41(a), sodium salt]                    >               32
6  O=C([O-])C[n+]1ccc(SCC2=C(C(=O)O)N3C(=O)[C@@H]4[C@H]3[C@H](C2)CN4C(=O)C(F)(F)F)cc1 [Example 52(b), sodium salt]                    =                2
7  O=C(Cn1nnnc1SCC1=C(C(=O)O)N2C(=O)[C@H]3NC[C@@H](O1)[C@H]32)NC1CC1                    =                8

Measured values drawn from patent US5464617A for this set.
